# Assayed target: T1, human HVEM extracellular domain fused with an Fc fragment at the C-terminus (human, UniProt Q92956 39-202)
# T1 construct: extracellular domain; Bought; also called hHVEM; not shown: Fc fragment at the C-terminus
# T1 sequence (looked up): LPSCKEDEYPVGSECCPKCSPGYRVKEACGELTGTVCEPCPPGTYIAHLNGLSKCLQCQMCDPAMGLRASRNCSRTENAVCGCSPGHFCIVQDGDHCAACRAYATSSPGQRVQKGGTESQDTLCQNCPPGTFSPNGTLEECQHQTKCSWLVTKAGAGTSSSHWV
# Method summary: phage ELISA

Binder	binding result
LIGHT-6 (ligand, Printed mutations: W198Q, L220N, D221G; Soluble protein carries an N-terminal His tag) DGPAGSWEQLIQERRSHEVNPAAHLTGANSSLTGSGGPLLWETQLGLAFLRGLSYHDGALVVTKAGYYYIYSKVQLGGVGCPLGLASTITHGLYKRTPRYPEELELLVSQQSPCGRATSSSRVWQDSSFLGGVVHLEAGEKVVVRVNGERLVRLRDGTRSYFGAFMV	no binding
LIGHT-48 (ligand, Printed mutations: L120P, L220R; Soluble protein carries an N-terminal His tag) DGPAGSWEQLIQERRSHEVNPAAHLTGANSSLTGSGGPLLWETQLGPAFLRGLSYHDGALVVTKAGYYYIYSKVQLGGVGCPLGLASTITHGLYKRTPRYPEELELLVSQQSPCGRATSSSRVWWDSSFLGGVVHLEAGEKVVVRVRDERLVRLRDGTRSYFGAFMV	binds
LIGHT-9 (ligand, Printed mutations: G150S, T161G, L220S; Soluble protein carries an N-terminal His tag) DGPAGSWEQLIQERRSHEVNPAAHLTGANSSLTGSGGPLLWETQLGLAFLRGLSYHDGALVVTKAGYYYIYSKVQLSGVGCPLGLASGITHGLYKRTPRYPEELELLVSQQSPCGRATSSSRVWWDSSFLGGVVHLEAGEKVVVRVSDERLVRLRDGTRSYFGAFMV	no binding
LIGHT-54 (ligand, Printed mutations: Q117E, L220S, L227T; Soluble protein carries an N-terminal His tag) DGPAGSWEQLIQERRSHEVNPAAHLTGANSSLTGSGGPLLWETELGLAFLRGLSYHDGALVVTKAGYYYIYSKVQLGGVGCPLGLASTITHGLYKRTPRYPEELELLVSQQSPCGRATSSSRVWWDSSFLGGVVHLEAGEKVVVRVSDERLVRTRDGTRSYFGAFMV	binds
LIGHT-63 (ligand, Printed mutations: T161G, L220S, L227T; Soluble protein carries an N-terminal His tag) DGPAGSWEQLIQERRSHEVNPAAHLTGANSSLTGSGGPLLWETQLGLAFLRGLSYHDGALVVTKAGYYYIYSKVQLGGVGCPLGLASGITHGLYKRTPRYPEELELLVSQQSPCGRATSSSRVWWDSSFLGGVVHLEAGEKVVVRVSDERLVRTRDGTRSYFGAFMV	binds
LIGHT-67 (ligand, Printed mutations: T161S, L220S, L227T; Soluble protein carries an N-terminal His tag) DGPAGSWEQLIQERRSHEVNPAAHLTGANSSLTGSGGPLLWETQLGLAFLRGLSYHDGALVVTKAGYYYIYSKVQLGGVGCPLGLASSITHGLYKRTPRYPEELELLVSQQSPCGRATSSSRVWWDSSFLGGVVHLEAGEKVVVRVSDERLVRTRDGTRSYFGAFMV	binds
LIGHT-64 (ligand, Printed mutations: T161P, L220S, L227T; Soluble protein carries an N-terminal His tag) DGPAGSWEQLIQERRSHEVNPAAHLTGANSSLTGSGGPLLWETQLGLAFLRGLSYHDGALVVTKAGYYYIYSKVQLGGVGCPLGLASPITHGLYKRTPRYPEELELLVSQQSPCGRATSSSRVWWDSSFLGGVVHLEAGEKVVVRVSDERLVRTRDGTRSYFGAFMV	binds
LIGHT-73 (ligand, Printed mutations: Q117E, T161G, L220S, L227T; Soluble protein carries an N-terminal His tag) DGPAGSWEQLIQERRSHEVNPAAHLTGANSSLTGSGGPLLWETELGLAFLRGLSYHDGALVVTKAGYYYIYSKVQLGGVGCPLGLASGITHGLYKRTPRYPEELELLVSQQSPCGRATSSSRVWWDSSFLGGVVHLEAGEKVVVRVSDERLVRTRDGTRSYFGAFMV	binds
LIGHT-53 (ligand, Printed mutations: Q117N, L220S, L227T; Soluble protein carries an N-terminal His tag) DGPAGSWEQLIQERRSHEVNPAAHLTGANSSLTGSGGPLLWETNLGLAFLRGLSYHDGALVVTKAGYYYIYSKVQLGGVGCPLGLASTITHGLYKRTPRYPEELELLVSQQSPCGRATSSSRVWWDSSFLGGVVHLEAGEKVVVRVSDERLVRTRDGTRSYFGAFMV	binds
LIGHT-74 (ligand, Printed mutations: Q117N, S160G, T161G, L220S, L227T; Soluble protein carries an N-terminal His tag) DGPAGSWEQLIQERRSHEVNPAAHLTGANSSLTGSGGPLLWETNLGLAFLRGLSYHDGALVVTKAGYYYIYSKVQLGGVGCPLGLAGGITHGLYKRTPRYPEELELLVSQQSPCGRATSSSRVWWDSSFLGGVVHLEAGEKVVVRVSDERLVRTRDGTRSYFGAFMV	binds
LIGHT-51 (ligand, Printed mutations: A101D, S160N, L220S; Soluble protein carries an N-terminal His tag) DGPAGSWEQLIQERRSHEVNPAAHLTGDNSSLTGSGGPLLWETQLGLAFLRGLSYHDGALVVTKAGYYYIYSKVQLGGVGCPLGLANTITHGLYKRTPRYPEELELLVSQQSPCGRATSSSRVWWDSSFLGGVVHLEAGEKVVVRVSDERLVRLRDGTRSYFGAFMV	binds
LIGHT-82 (ligand, Printed mutations: Q117E, S160G, T161G, L220S, E222S, L227T; Soluble protein carries an N-terminal His tag) DGPAGSWEQLIQERRSHEVNPAAHLTGANSSLTGSGGPLLWETELGLAFLRGLSYHDGALVVTKAGYYYIYSKVQLGGVGCPLGLAGGITHGLYKRTPRYPEELELLVSQQSPCGRATSSSRVWWDSSFLGGVVHLEAGEKVVVRVSDSRLVRTRDGTRSYFGAFMV	binds
